assay: Partition coefficient, log D of the compound at pH 7.4 by UV-HPLC analysis; details: octanol/water
parameter: logD
Respond using a number only.

logD for Cc1cc(Nc2ccc(C3CC3)cc2)n2ncnc2n1 ?
2.7

logD for CCc1ccc(Nc2cc(C)nc3ncnn23)cc1 ?
2.6

logD for Cc1cc(Nc2ccc(C(C)(C)C)cc2)n2ncnc2n1 ?
3.4

logD for C#Cc1ccc(Nc2cc(C)nc3ncnn23)cc1 ?
2.2

logD for Cc1cc(Nc2ccc3c(c2)CCCC3)n2ncnc2n1 ?
3.4

logD for CCCc1ccc(Nc2cc(C)nc3ncnn23)cc1 ?
3.1

logD for Cc1cc(Nc2ccc(C(C)C)cc2)n2ncnc2n1 ?
3

logD for Cc1cc(Nc2ccc3ccccc3c2)n2ncnc2n1 ?
3.2

logD for Cc1cc(Nc2ccc(N(C)C)cc2)n2ncnc2n1 ?
2.2

logD for Cc1cc(Nc2ccc3c(c2)CCC3)n2ncnc2n1 ?
2.9

logD for Cc1cc(Nc2ccc(C(C)(C)C)c(F)c2)n2ncnc2n1 ?
3.5

logD for Cc1cc(Nc2cc(F)c(C(F)(F)F)c(F)c2)n2ncnc2n1 ?
2.9

logD for Cc1cc(Nc2ccc(S(F)(F)(F)(F)F)cc2)n2ncnc2n1 ?
3

logD for C=Cc1ccc(Nc2cc(C)nc3ncnn23)cc1 ?
2.4

logD for Cc1cc(Nc2ccc(C(F)(F)F)cc2)n2ncnc2n1 ?
2.5

logD for Cc1cc(NC2Cc3ccccc3C2)n2ncnc2n1 ?
2.5

logD for Cc1cc(Nc2ccc3c(c2)OCO3)n2ncnc2n1 ?
1.6

logD for Cc1cc(Nc2ccc3sccc3c2)n2ncnc2n1 ?
2.6

logD for Cc1cc(NC2CCc3ccccc3C2)n2ncnc2n1 (stereo not given) ?
2.9

logD for CCCCc1ccc(Nc2cc(C)nc3ncnn23)cc1 ?
3.6
